# kon values compiled below
# measurementTarget: T1, Soluble heterodimeric CD3 protein (hCD3-epsilon/hCD3-delta) with a human Fc tag (hFcΔAdp/hFc) or a mouse Fc … (human, UniProt P07766 23-126; P04234 22-105)
# T1 construct: also called hCD3ε/δ; not shown: Fc tag: human (hFcΔAdp/hFc); which tag was used in Ta
# T1 sequence (P07766 23-126 limits assumed, stated change not applied, chain 1 of 2): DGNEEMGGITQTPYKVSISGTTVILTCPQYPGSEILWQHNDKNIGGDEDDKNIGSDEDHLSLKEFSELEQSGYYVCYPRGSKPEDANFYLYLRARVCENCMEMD
# T1 sequence (P04234 22-105 limits assumed, stated change not applied, chain 2 of 2): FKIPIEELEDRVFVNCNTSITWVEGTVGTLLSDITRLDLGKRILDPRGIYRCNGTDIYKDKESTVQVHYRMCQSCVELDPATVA
# method: SPR Biacore, 25 C, antibody-capture format
# value in M⁻¹ s⁻¹; strip the unit string

binder | scaleUnit | kon
H2M2706N (antibody, V domains shown, Hybridoma antibody, human variable regions, mouse IgG2 Fc) VH: QVQLVESGGGVVQPGRSLRLSCAASGFTFRSYAMHWVRQAPGKGLEWVAMVYYDGNNQYYADSVRGRFTISRDNSKNTLYLQMNSLRADDTAVYFCARGPGYNWLDPWGQGTLVTVSS VL: EIVMTQSPATLSVSPGERATLSCRASQSVSRNLAWYQQKPGQAPRLLIYGASTRATGIPARFSGSGSGTDFTLTISSLQSEDFAVYYCQQYNNWPLTFGGGTKVVIK | M⁻¹ s⁻¹ | 32900

# input for lookup
QUERY: Quick one: kon of H2M2862N (antibody, V domains shown, Hybridoma antibody, human variable regions, mouse IgG2 Fc) VH: QVQLVESGGGVVQPGRSLRLSCAASGFTFRSYGMHWVRQAPGKGLEWVAMIYYDGNNKKYADSVRGRFTISRDNSKNTLYLQMNSLRVEDTAVYFCARGPGYNWLDPWGQGTLVTVSS VL: EIVMTQSPATLSVSPGERATLSCRASQSVSRNLAWYQQKPGQAPRLLIYGASTRATDIPARFSGSGSGTEFILNISSLQSEDFALYYCQQYSNWPLTFGGGTEVEIK ?
RESULT: 37200
